// data source = ChEMBL document CHEMBL1125864

As shown below, each of these molecules has a reported Ratio value.
# test method notes: It is the ratio of relative maximum velocity to that of apparent kinetic constant
Just the number, please, no unit after it.

Solved entries:
{"molecule": "Nc1nc(=O)c2nc(CNc3ccc(C(=O)N[C@@H](CCC(=O)O)C(=O)O)cc3)cnc2[nH]1", "measurement": 0.77}
{"molecule": "Nc1nc(O)c2c(n1)NCC(CNc1ccc(C(=O)N[C@@H](CCC(=O)O)C(=O)O)cc1)N2 (stereo partly specified)", "measurement": 32.1}
{"molecule": "C#CCN(Cc1ccc2nc(C)nc(O)c2c1)c1ccc(C(=O)NC(CCC(=O)O)C(=O)O)cc1 (stereo unspecified)", "measurement": 1.33}
{"molecule": "C#CCN(Cc1ccc(C(=O)NC(CCC(=O)O)C(=O)O)cc1)Cc1ccc2nc(N)nc(O)c2c1 (stereo unspecified)", "measurement": 1.9}

For record C#CCN(Cc1ccc(C(=O)NC(CCC(=O)O)C(=O)O)cc1)Cc1ccc2ccnc(O)c2c1 (stereo unspecified) the listed Ratio is 0.38

For record C#CCN(Cc1ccc(C(=O)NC(CCC(=O)O)C(=O)O)cc1)Cc1ccc2nc(C)nc(O)c2c1 (stereo unspecified) the listed Ratio is 2.01
